Reference source: patent US20100092460A1

# Tested target: T1, recombinant human CCL2/MCP1 (human, UniProt P13500 24-99, 125I label in the radioligand assays)
# T1 construct: Immunogen and selection antigen was the Mucin stalk Chimera (R&D 979-MC/CF)
# T1 sequence (P13500 24-99 limits assumed): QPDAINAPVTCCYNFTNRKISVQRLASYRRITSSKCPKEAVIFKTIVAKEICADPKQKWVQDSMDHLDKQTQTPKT
# Measurement description: ELISA, periplasmic extract on coated CCL2, anti-myc detection
Property: binding result

{"columns": ["Binder", "Property", "Result value"],
 "data": [
  ["Nanobody 8E1 (VHH, llama VHH against CCL2; not shown: C-terminal c-myc tag and (His)6 tag coded by the vector) VHH: EVQLVESGGGLVQAGGSLRLSCAASGLTFSTYPMGWFRQAPGKEREFVAAINSGGSYTYYADSVKGRFTISRDNAVNTIYLQMNSLKPEDTAVYSCAVKIYSGSYSSPPGYNHWGQGTQVTVSS", "binding result", "binds"],
  ["Nanobody 8D5 (VHH, llama VHH against CCL2; not shown: C-terminal c-myc tag and (His)6 tag coded by the vector) VHH: EVQLVESGGGLVQAGGSLRLSCAASGRTFSNYAMDWFRQAPGKEREFVAAISKSDGSTYYADSVKGRFTISRDNAKNTVYLQMNSLKPEDTAVYYCAAEGDSSPMGGVTYDYWGQGTQVTVSS", "binding result", "binds"],
  ["Nanobody 8A5 (VHH, llama VHH against CCL2; not shown: C-terminal c-myc tag and (His)6 tag coded by the vector) VHH: QVQLVESGGGLVQAGGSLALSCAASGIAFSIFDMAWFRQTPGKEREAVARISHGGGKDYLDSVKGRFTISRDNAKNTVTLQMTSLKPEDTAVYYCNAKNSFRNLWGQGTQVTVSS", "binding result", "binds"]
]}
